Recorded values, source a melting point compilation (Tetko et al.; mined from patent text by program, amines drawn as free bases though some values may be those of a salt).

Here, each record is paired with measured melting point data.

CCOCc1nc2c(N)nc3ccc(O)cc3c2n1CC(C)(C)NS(C)(=O)=O | 252 to 254 °C
CNc1nc(-c2cccc(-c3ccc(S(C)=O)cc3)c2)c2cc(OC)c(OC)cc2n1 (stereo unspecified) | 153 to 155 °C
O=C1Oc2ccccc2C1c1ccccc1 (stereo unspecified) | 109 to 111 °C

Task: For `CC1(C)Cc2cccc(O)c2S1` , what is its reported melting point?
Result: 87 to 92 °C

Task: What about `CN1CCN(c2ccc(S(=O)(=O)Oc3ccc(Cl)cc3)cc2)C1=O` ?
Result: 165 to 168 °C

Task: What would you report for CC(C)CCOCc1cc(N2N=C(C(N)=O)NC2c2ccccc2)ccc1Cl (stereo unspecified) ?
Result: 174 to 176 °C

Task: Another compound to check: COC(=O)c1ccc2c(c(C)nn2C)c1C(=O)NC(C)(C(N)=O)C(C)C (stereo unspecified)
Result: 221 to 222 °C

Task: Next compound: CSc1c(C(Cc2ccc(F)cc2)C(=O)O)ccc2c3ccccc3n(Cc3ccc(F)cc3)c12 (stereo unspecified)
Result: 90 to 94 °C

Task: Request: NS(=O)c1ncnc2c1ccn2C1CC(O)C(CO)O1 (stereo unspecified)
Result: 170 to 172 °C
